test system: MALME-3M melanoma; test: NCI-60 one-dose screen, 48 h; details: 10 µM unless noted
This is part of a sample that, as a whole, favours compounds with a hit. Of some 83,000 tested, about 20% had one in any assay. Activity calls are given as the source filed them. Rule for the calls: active = growth percent below 10; inactive = the rest.
Classes used: active, inactive

>>> discretelabel("CCn1c(Sc2nnc(NC(=O)CCN3CCCC3)s2)nc2c1c(=O)n(C)c(=O)n2C")
"inactive"
>>> discretelabel("CCOc1cc(C2C(Cl)C(=O)N2n2cnnc2)ccc1O (stereo unspecified)")
"inactive"
>>> discretelabel("O=C(/C=C/C12c3ccccc3C(c3ccccc31)C1C(=O)N(c3ccccc3)C(=O)C12)c1ccccc1 (stereo unspecified)")
"active"
>>> discretelabel("N=C(N)c1ccc(-c2ccc(-c3ccc(Cl)cc3Cl)o2)cc1")
"inactive"
>>> discretelabel("Cc1c(C(N)=O)sc2nc(C)n(/N=c3\\scc(-c4ccccc4)n3Cc3ccccc3)c(=O)c12")
"inactive"
>>> discretelabel("C=C1C(=O)O[C@H]2[C@H]1CC/C(COC(=O)/C=C\\C(=O)NCc1ccc(Cn3c(=O)sn(CCCC)c3=O)cc1)=C\\CC[C@@]1(C)O[C@@H]21")
"active"
